- Tested on: LG0703-F948-PDC complex spheroid viability
- EXPERIMENT_SUMMARY: Anticancer human tumor LG0703-F948-PDC patient-derived lung adenocarcinoma cell line growth inhibition [RAS]
- EXPERIMENTAL_CONDITIONS: second compound 3.16 µM; first compound 0.00316 µM; active compounds read low
Exercise: state measured viability, T/C for each of the compounds provided.

-- ask Find the measured viability, T/C: item C=CC(=O)Nc1cc(Nc2nccc(-c3cn(C)c4ccccc34)n2)c(OC)cc1N(C)CCN(C)C + C#Cc1c(F)ccc2cc(O)cc(-c3ncc4c(N5CC6CCC(C5)N6)nc(OCC56CCCN5CC(F)C6)nc4c3F)c12 , target or system LG0703-F948-PDC complex spheroid viability.
-- reply 48.8%

-- ask Notebook entry, LG0703-F948-PDC complex spheroid viability assay: viability, T/C of Nc1ccn(C2OC(CO)C(O)C2(F)F)c(=O)n1 (stereo unspecified) + C#Cc1c(F)ccc2cc(O)cc(-c3ncc4c(N5CC6CCC(C5)N6)nc(OCC56CCCN5CC(F)C6)nc4c3F)c12 = ?
-- reply 53%

-- ask Return viability, T/C measured with LG0703-F948-PDC complex spheroid viability given this compound: CCN1CCN(Cc2ccc(Nc3ncc(F)c(-c4cc(F)c5nc(C)n(C(C)C)c5c4)n3)nc2)CC1 + C#Cc1c(F)ccc2cc(O)cc(-c3ncc4c(N5CC6CCC(C5)N6)nc(OCC56CCCN5CC(F)C6)nc4c3F)c12
-- reply 73.2%

-- ask Write down the reported viability, T/C of C=CC(=O)N1CCN(c2nc(OCC3CCCN3C)nc3c(F)c(-c4nc(N)cc(C)c4C(F)(F)F)c(Cl)cc23)C(C)C1 (stereo unspecified) + C#Cc1c(F)ccc2cc(O)cc(-c3ncc4c(N5CC6CCC(C5)N6)nc(OCC56CCCN5CC(F)C6)nc4c3F)c12 , test system: LG0703-F948-PDC complex spheroid viability.
-- reply 61.8%

-- ask Provide the documented viability, T/C with LG0703-F948-PDC complex spheroid viability as the system for O=C(c1ccc(F)c(F)c1Nc1ccc(I)cc1F)N1CC(O)([C@@H]2CCCCN2)C1 + C#Cc1c(F)ccc2cc(O)cc(-c3ncc4c(N5CC6CCC(C5)N6)nc(OCC56CCCN5CC(F)C6)nc4c3F)c12
-- reply 56.8%

-- ask Any idea what viability, T/C came out for CC(C)n1nc(-c2ccc3oc(N)nc3c2)c2c(N)ncnc21 + C#Cc1c(F)ccc2cc(O)cc(-c3ncc4c(N5CC6CCC(C5)N6)nc(OCC56CCCN5CC(F)C6)nc4c3F)c12 on LG0703-F948-PDC complex spheroid viability?
-- reply 23.4%

====

Provide the reported viability, T/C of each item.
- Tested on: LG0703-F948-PDC complex spheroid viability
- EXPERIMENT_SUMMARY: Anticancer human tumor LG0703-F948-PDC cell line growth inhibition [RAS];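 also: spheroids exposed to agents for 7 days; 100% = DMSO vehicle wells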
- EXPERIMENTAL_CONDITIONS: second compound 0.03 µM; first compound 0.0316 µM; active compounds read low
// return numeric value only (unit: %, not printed)

-- ask Quick check: viability, T/C of NC1c2ccccc2OC12CCN(c1cnc3c(N4CCCc5ncccc54)n[nH]c3n1)CC2 (centres undefined) + CCn1c(-c2cccnc2C(C)OC)c2c3cc(ccc31)N1CCOC(CC(NC(=O)C(C(C)C)N(C)C(=O)C3(F)CCN(C(=O)C#CC(C)(C)N(C)C)CC3)C(=O)N3CCCC(N3)C(=O)OCC(C)(C)C2)C1 ?
-- reply 53.6

-- ask Fill in: viability, T/C of O=C(c1ccc(F)c(F)c1Nc1ccc(I)cc1F)N1CC(O)([C@@H]2CCCCN2)C1 + CCn1c(-c2cc(N3CCN(C)CC3)cnc2C(C)OC)c2c3cc(ccc31)-c1csc(n1)CC(NC(=O)C1CC1C)C(=O)N1CCCC(N1)C(=O)OCC(C)(C)C2 is ___
-- reply 4.84

-- ask Could you tell me which viability, T/C is on file for C[C@@H](NC(=O)c1ncnc(N)c1Cl)c1ncc(C(=O)Nc2cc(C(F)(F)F)c(Cl)cn2)s1 + CCn1c(-c2cc(N3CCN(C)CC3)cnc2C(C)OC)c2c3cc(ccc31)-c1csc(n1)CC(NC(=O)C1CC1C)C(=O)N1CCCC(N1)C(=O)OCC(C)(C)C2 ?
-- reply 17.5

-- ask // query viability, T/C value for entry CC(C)NCC(C(=O)N1CCN(c2ncnc3c2C(C)CC3O)CC1)c1ccc(Cl)cc1 (centres undefined) + CCn1c(-c2cccnc2C(C)OC)c2c3cc(ccc31)N1CCOC(CC(NC(=O)C(C(C)C)N(C)C(=O)C3(F)CCN(C(=O)C#CC(C)(C)N(C)C)CC3)C(=O)N3CCCC(N3)C(=O)OCC(C)(C)C2)C1
-- reply 99.3

====

- Test system: LG0703-F948-PDC complex spheroid viability
- EXPERIMENT_SUMMARY: Anticancer human tumor LG0703-F948-PDC cell line growth inhibition [RAS];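 also: spheroids exposed to agents for 7 days; 100% = DMSO vehicle wells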
- EXPERIMENTAL_CONDITIONS: second compound 0.00949 µM; first compound 0.0316 µM; active compounds read low
So basically every entry gets a class from its viability, T/C, ranges being zone 1: < 20%; zone 2: ≥ 20% and < 90%; zone 3: ≥ 90%

-- ask For the record Cc1nc(N2CCC3(CC2)COC(C)C3N)c(CO)nc1Sc1ccnc(N)c1Cl (centres undefined) + CCn1c(-c2cccnc2C(C)OC)c2c3cc(ccc31)N1CCOC(CC(NC(=O)C(C(C)C)N(C)C(=O)C3(F)CCN(C(=O)C#CC(C)(C)N(C)C)CC3)C(=O)N3CCCC(N3)C(=O)OCC(C)(C)C2)C1 , report the class its viability, T/C corresponds to.
-- reply zone 3

-- ask Which of the defined bands does the recorded viability, T/C of O=C(c1ccc(F)c(F)c1Nc1ccc(I)cc1F)N1CC(O)([C@@H]2CCCCN2)C1 + CCn1c(-c2cccnc2C(C)OC)c2c3cc(ccc31)N1CCOC(CC(NC(=O)C(C(C)C)N(C)C(=O)C3(F)CCN(C(=O)C#CC(C)(C)N(C)C)CC3)C(=O)N3CCCC(N3)C(=O)OCC(C)(C)C2)C1 sit within?
-- reply zone 2

-- ask Which viability, T/C category applies to C[C@@H](NC(=O)c1ncnc(N)c1Cl)c1ncc(C(=O)Nc2cc(C(F)(F)F)c(Cl)cn2)s1 + CCn1c(-c2cccnc2C(C)OC)c2c3cc(ccc31)N1CCOC(CC(NC(=O)C(C(C)C)N(C)C(=O)C3(F)CCN(C(=O)C#CC(C)(C)N(C)C)CC3)C(=O)N3CCCC(N3)C(=O)OCC(C)(C)C2)C1 here?
-- reply zone 3

-- ask Band of CC(C)n1nc(-c2ccc3oc(N)nc3c2)c2c(N)ncnc21 + CCn1c(-c2cc(N3CCN(C)CC3)cnc2C(C)OC)c2c3cc(ccc31)-c1csc(n1)CC(NC(=O)C1CC1C)C(=O)N1CCCC(N1)C(=O)OCC(C)(C)C2 ?
-- reply zone 1

-- ask # classify by viability, T/C band: Nc1ccn(C2OC(CO)C(O)C2(F)F)c(=O)n1 (centres undefined) + CCn1c(-c2cc(N3CCN(C)CC3)cnc2C(C)OC)c2c3cc(ccc31)-c1csc(n1)CC(NC(=O)C1CC1C)C(=O)N1CCCC(N1)C(=O)OCC(C)(C)C2
-- reply zone 1

-- ask Which viability, T/C category applies to O=C(c1ccc(F)c(F)c1Nc1ccc(I)cc1F)N1CC(O)([C@@H]2CCCCN2)C1 + CCn1c(-c2cc(N3CCN(C)CC3)cnc2C(C)OC)c2c3cc(ccc31)-c1csc(n1)CC(NC(=O)C1CC1C)C(=O)N1CCCC(N1)C(=O)OCC(C)(C)C2 here?
-- reply zone 1

-- ask For the record CC(Nc1ccc2c(c1)OCCn1cc(N3C(=O)OCC3C(F)F)nc1-2)C(N)=O (centres undefined) + CCn1c(-c2cccnc2C(C)OC)c2c3cc(ccc31)N1CCOC(CC(NC(=O)C(C(C)C)N(C)C(=O)C3(F)CCN(C(=O)C#CC(C)(C)N(C)C)CC3)C(=O)N3CCCC(N3)C(=O)OCC(C)(C)C2)C1 , report the class its viability, T/C corresponds to.
-- reply zone 3

-- ask Band for NC1c2ccccc2OC12CCN(c1cnc3c(N4CCCc5ncccc54)n[nH]c3n1)CC2 (centres undefined) + CCn1c(-c2cccnc2C(C)OC)c2c3cc(ccc31)N1CCOC(CC(NC(=O)C(C(C)C)N(C)C(=O)C3(F)CCN(C(=O)C#CC(C)(C)N(C)C)CC3)C(=O)N3CCCC(N3)C(=O)OCC(C)(C)C2)C1 ?
-- reply zone 2

====

Can you tell me viability, T/C for the items I'm about to list?
- System: LG0703-F948-PDC complex spheroid viability
- EXPERIMENT_SUMMARY: Anticancer human tumor LG0703-F948-PDC cell line growth inhibition [RAS];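 also: spheroids exposed to agents for 7 days; 100% = DMSO vehicle wells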
- EXPERIMENTAL_CONDITIONS: second compound 0.00316 µM; first compound 0.0316 µM; active compounds read low
Report only the number, with the unit % understood.

-- ask // returns reported viability, T/C for input C=CC(=O)Nc1cc(Nc2nccc(-c3cn(C)c4ccccc34)n2)c(OC)cc1N(C)CCN(C)C + C=CC(=O)N1CCN(c2nc(OCC3CCCN3C)nc3c(F)c(-c4nc(N)cc(C)c4C(F)(F)F)c(Cl)cc23)C(C)C1
-- reply 16.2

-- ask # query: viability, T/C of entry CC1(O)CCCC1n1c(=O)c(C(F)F)cc2cnc(NC3CCN(S(C)(=O)=O)CC3)nc21 (stereo not given) + C=CC(=O)N1CCN(c2nc(OCC3CCCN3C)nc3c(F)c(-c4nc(N)cc(C)c4C(F)(F)F)c(Cl)cc23)C(C)C1
-- reply 96.7

-- ask Param item = O=C(c1ccc(F)c(F)c1Nc1ccc(I)cc1F)N1CC(O)([C@@H]2CCCCN2)C1 + C=CC(=O)N1CCN(c2nc(OCC3CCCN3C)nc3c(F)c(-c4nc(N)cc(C)c4C(F)(F)F)c(Cl)cc23)C(C)C1 ; retrieve measured viability, T/C.
-- reply 47.3

-- ask Reported viability, T/C, compound NC1c2ccccc2OC12CCN(c1cnc3c(N4CCCc5ncccc54)n[nH]c3n1)CC2 (stereo not given) + C=CC(=O)N1CCN(c2nc(OCC3CCCN3C)nc3c(F)c(-c4nc(N)cc(C)c4C(F)(F)F)c(Cl)cc23)C(C)C1 : ____
-- reply 54.5

-- ask # query: viability, T/C of entry CC(C)NCC(C(=O)N1CCN(c2ncnc3c2C(C)CC3O)CC1)c1ccc(Cl)cc1 (stereo not given) + C=CC(=O)N1CCN(c2nc(OCC3CCCN3C)nc3c(F)c(-c4nc(N)cc(C)c4C(F)(F)F)c(Cl)cc23)C(C)C1
-- reply 97
